FYI, the data here is from patent US12209060B2.

experimentalDetails: In vivo Dog PK Studies
conditionSummary: dogs; PO 15 μmol/kg; S-ketamine in blood
metric: Cmax (nM)
Write the number in nM without appending the unit.

Ask: Recorded Cmax of CN[C@]1(c2ccccc2Cl)CCCCC1=O , please.
Result: 9

* * *

experimentalDetails: In vivo Monkey PK studies
conditionSummary: monkeys; PO @10 μmol/kg; S-ketamine in blood
metric: Cmax (nM)
Write the number in nM without appending the unit.

Ask: Recorded Cmax of CN[C@]1(c2ccccc2Cl)CCCCC1=O , please.
Result: 13
